assayed.target: UniProt P25090
Sequence (P25090 1-351): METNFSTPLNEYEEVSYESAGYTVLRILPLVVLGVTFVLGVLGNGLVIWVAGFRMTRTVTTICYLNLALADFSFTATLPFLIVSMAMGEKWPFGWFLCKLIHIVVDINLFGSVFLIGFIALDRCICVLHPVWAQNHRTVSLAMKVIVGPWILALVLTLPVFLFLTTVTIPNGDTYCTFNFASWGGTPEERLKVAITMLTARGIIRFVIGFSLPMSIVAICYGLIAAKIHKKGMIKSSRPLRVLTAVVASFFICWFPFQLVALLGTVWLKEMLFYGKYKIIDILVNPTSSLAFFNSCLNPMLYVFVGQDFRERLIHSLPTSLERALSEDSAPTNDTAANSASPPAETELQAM
experiment: FPR2 cyclic adenosine monophosphate (cAMP) assay
condition.notes: CHO cells overexpressing human FPR2; forskolin 5 μM; inhibition of cAMP production; HTRF; read-out: hFPR2 cAMP2 EC50
endpoint: pEC50
Answer as the number alone; pEC50 is minus log10 of concentration in mol/L.

Sample answers from the record:
COc1cc(F)c(-c2c(NC(=O)c3ccc(OC(F)F)cc3)c(=O)n(-c3nc(OC)ccc3C(F)(F)F)n2C)c(F)c1 [Example 257] | 8.00
COc1ccc(-c2c(NC(=O)c3ccc(OC(F)F)cc3)c(=O)n(-c3ncccc3C(F)(F)F)n2C)cc1F [Example 293] | 8.05

Proceeding to the next compound to report its pEC50.
Request: Enter pEC50 (test system UniProt P25090) for COc1cc(F)c(-c2c(NC(=O)c3ccc(OC(F)F)cc3)c(=O)n(-c3nc(N4CCN(CC(F)F)CC4)ccc3C(F)(F)F)n2C)c(F)c1 [Example 270]
Result: 8.22

----------
assayed.target: UniProt:P25090
experiment: FPR2 cyclic adenosine monophosphate (cAMP) assay
Type: cell-based
condition.notes: CHO cells overexpressing human FPR2; forskolin 5 μM; inhibition of cAMP production; HTRF; read-out: hFPR2 cAMP2 EC50
endpoint: pEC50
Give only the number. pEC50 is defined as minus log10 of concentration in molar units.

Request: Specify pEC50 for COc1ccnc(-n2c(=O)c(NC(=O)c3ccc(OC(F)F)cc3)c(-c3c(F)cc(OC)cc3F)n2C)c1 [Example 59] and stop.
Result: 8.10

Request: In one line, give reported pEC50 of the entry COc1cc(F)c(-c2c(NC(=O)c3ccc(OC(F)F)cc3)c(=O)n(-c3nc(NCCO)ccc3C(F)(F)F)n2C)c(F)c1 [Example 225] .
Result: 8.52

Request: Give the reported value of pEC50 for this record: CCOc1ccnc(-n2c(=O)c(NC(=O)c3ccc(OC(F)F)cc3)c(-c3c(F)cc(OC)cc3F)n2C)c1 [Example 78]
Result: 8.00

Request: Quick one: give measured pEC50 for COCC(CO)Oc1cc(OC)cc(-n2c(=O)c(NC(=O)c3ccc(OC(F)F)cc3)c(-c3c(F)cc(OC)cc3F)n2C)n1 (centres unmarked) [Example 386]
Result: 8.05

Request: Report measured pEC50; entry is COc1cc(CO)nc(-n2c(=O)c(NC(=O)c3ccc(OC(F)F)cc3)c(-c3c(F)cc(OC)cc3F)n2C)c1 [Example 90]
Result: 8.10

Request: Quick one: give measured pEC50 for COc1cc(N2CC[C@H](F)C2)nc(-n2c(=O)c(NC(=O)c3ccc(OC(F)F)cc3)c(-c3c(F)cc(OC)cc3F)n2C)c1 [Example 98]
Result: 8.22
